Target: RSV prefusion F (preF), DS-Cav1 (Respiratory syncytial virus, UniProt P03420 26-513)
Assay: BLI, IgG on anti-human IgG sensor, 100 nM antigen
pKd: −log10 of the molar value.
Kind request: treat 8 as inclusive, so pKd at 8 or higher is met, anything lower is not met.

ADI-41564 (antibody, V domains shown, also called Ab 844; Antibody Number 844) VH: QVQLVQSGAEVKKPGSSVKVSCKAFGGTLRRYALSWVRQAPGQGLEWMGGIIPVFGTRRYAQKFQGRITITADGSTSTASMEVSSLRFEDTAIYYCATVYFDFVSGPPPTYYYYYMDVWGKGTTVTVSS VL: DIVMTQSPGTLSLSPGERATLSCRASQSVSSSYLAWYQQKPGQAPRLLIYGASSRATGIPDRFSGSGSGTDFTLTISRLEPEDFAVYYCQQYDSSLRVLTFGGGTKVDIK = met
ADI-41756 (antibody, V domains shown) VH: EVQLLESGGGVVQPGRSLRLSCAASGLSFNSFGMHWVRQAPGKGLEWVAVIAYDGSNKYYADSVKGRFSISRDNSKNTLYLQMDSLRAEDTAVYYCAKAEAPNFSWSGYLSAFDIWGQGTTVTVSS VL: QPVLTQPASVSGSPGQSVTVSCTGTSDDVGDYNYVSWYQQHPGKAPKLLIFEVSDRPSGVSTRFSGSKSGNTASLTISGLQTEDEADYYCSSYTSRNLYVFGTGTKVTVL = not met
ADI-41567 (antibody, V domains shown, also called Ab 845; Antibody Number 845) VH: QVQLQQWGAGLLKPSETLSLTCEVYGGSFSGYYWTWFRQPPGEGLEWIGEINHSGGTNYNPSLKSRVTMSVDASINQFSLQLSSVTAADTSVYYCARGHYYNTNDFYGLFDYWGQGTLVTVSS VL: DIRLTQSPSFLSASVGDRVTITCRASQGISTYLAWYQQKPGKAPKLLLYAASTLHSGVPSRFSGSGSGTEFTLTISSLQPEDFATYYCQQLNRYPPSTFGPGTKLEIK = met
ADI-41644 (antibody, V domains shown, also called Ab 887; Antibody Number 887) VH: QVQLQQWGPGLVKPSETLSLSCAVSGGSLRGHFWSWIRQPPGKGLEWIGEINHGGRTNFNPSLKSRLTISEDSSKNQFSLKLSSVTAADTAVYYCARRWGYDSSGYYFFDYWGQGTLVTVSS VL: EIQMTQSPATLSVSPGERATLSCRASQTLGFNLAWYQQKPGQSPRLLIYGASTRATGIPARFSGSGAGTEFTLTISSLQSEDFAVYFCQQYSNYYTFGQGTKVEIK = met

Now let's try a different one.
Identify whether the reported pKd of the following binder is 8 or greater: ADI-41737 (antibody, V domains shown, also called Ab 897; Antibody Number 897) VH: QVQLQESGPGLVKPSQTLSLTCTVSGGSMISGDFYWSWIRQPPGKGLEWIGYIYYSGTTYYSPSLKSRVSMSIDTSKSQFSLKLSSVTAADTAVYYCARKYSYGEKAYHYWGQGTLVTVSS VL: EIVLTQSPGTLSLSPGERATLSCRASQTVGNNYLAWYQQKPGQAPRLLIYGASSRATGIPDRFSGSGSGTDFTLTISRLESEDFAVYHCHQYGTSPQTFGQGTKVEIK
met
